Readings of drug sensitivity score for the listed compounds
tested on: FMOC24 (patient-derived high-grade serous ovarian cancer cells); assay: drug sensitivity score (DSS3, normalised partial AUC of % inhibition dose-response) (DSS (score)); higher = more sensitive (stronger inhibition of viability); extreme values may be limits of the assay; conditions: 72 h; library: FO5A; assay format: 2D, 384-well, CellTiter-Glo

SMILES NOTATION	drug sensitivity score
COC(=O)N[C@@H](C)CNc1nccc(-c2cn(C(C)C)nc2-c2cc(Cl)cc(NS(C)(=O)=O)c2F)n1	0
NC(=O)N1CCC(CC(=O)N2CCC([C@H]3c4ncc(Br)cc4CCc4cc(Cl)cc(Br)c43)CC2)CC1	7.5
COc1cc2ncnc(Nc3ccc(F)c(Cl)c3)c2cc1NC(=O)/C=C/CN1CCCCC1	0.3
CN1C(=O)N[C@H](Cc2c[nH]c3c(Cl)cccc23)C1=O	0
C=CC(=O)Nc1cccc(Oc2nc(Nc3ccc(N4CCN(C)CC4)cc3)nc3ccsc23)c1	0
C[C@]12CC[C@H](O)CC1=CC[C@@H]1[C@@H]2CC[C@]2(C)C(c3cccnc3)=CC[C@@H]12	4.9

====

tested on: FMOC02_2 (patient-derived low-grade serous ovarian cancer cells); experiment: drug sensitivity score (DSS3, normalised partial AUC of % inhibition dose-response) (DSS (score)); higher = more sensitive (stronger inhibition of viability); extreme values may be limits of the assay; conditions: 72 h; library: FO5A; assay format: 2D, 384-well, CellTiter-Glo
Readings of drug sensitivity score for the listed molecules

MOLECULE	EXPERIMENTAL TARGET	drug sensitivity score
Cc1cccc(-c2nn3c(c2-c2ccnc4ccc(C(N)=O)cc24)CCC3)n1	FMOC02_2	0
O=C(c1cc(Cc2n[nH]c(=O)c3ccccc23)ccc1F)N1CCN(C(=O)C2CC2)CC1	FMOC02_2	1.7
O=C(Nc1c[nH]nc1-c1nc2ccc(CN3CCOCC3)cc2[nH]1)NC1CC1	FMOC02_2	4.1
COc1ccc(Cn2ccc3ccc(C(=O)NO)cc32)cc1	FMOC02_2	3.4
Cc1ccc(-n2nc(C(C)(C)C)cc2NC(=O)Nc2ccc(OCCN3CCOCC3)c3ccccc23)cc1	FMOC02_2	0
O=C(Nc1cnn2ccc(N3CCC[C@@H]3c3cc(F)ccc3F)nc12)N1CC[C@H](O)C1	FMOC02_2	0
O=C(CCCCCCC(=O)Nc1ccccc1)NO	FMOC02_2	9.8
CC1CCC(n2c3cnccc3c3cnc(Nc4ccc5c(n4)CCN(C(=O)CO)C5)nc32)CC1 (configuration not stated)	FMOC02_2	0
CNC(=O)c1ccc(N2C(=S)N(c3ccc(C#N)c(C(F)(F)F)c3)C(=O)C2(C)C)cc1F [Enzalutamide]	FMOC02_2	0
O=C(Nc1cccc(NC(=O)c2cccc(O)c2O)c1)c1cccc(O)c1O	FMOC02_2	2.7
O=C(O)CNC(=O)c1c(O)c2ccccc2n(Cc2ccccc2)c1=O	FMOC02_2	0.5
CN[C@@H](C)C(=O)N[C@H](C(=O)N1CCC[C@H]1c1nc(C(=O)c2ccc(F)cc2)cs1)C1CCCCC1	FMOC02_2	1.7
CN(CC(=O)N(Cc1ccc(C2CCCCC2)cc1)c1ccc(C(=O)O)cc1)S(=O)(=O)c1c(F)c(F)c(F)c(F)c1F	FMOC02_2	9.3
C=CC(=O)N1CCC(Oc2cc3c(Nc4ccc(Cl)c(Cl)c4F)ncnc3cc2OC)CC1	FMOC02_2	24.2
Cc1cn(-c2cc(NC(=O)c3ccc(C)c(Nc4nccc(-c5cnccn5)n4)c3)cc(C(F)(F)F)c2)cn1	FMOC02_2	0
Cn1cc(C2=C(c3cn(C4CCN(Cc5ccccn5)CC4)c4ccccc34)C(=O)NC2=O)c2ccccc21	FMOC02_2	4.4
Cn1ncnc1[C@H]1c2n[nH]c(=O)c3cc(F)cc(c23)N[C@@H]1c1ccc(F)cc1	FMOC02_2	2.3
